# test_method_notes: protein stability index of a GFP-peptide fusion (GPS, HEK-293T) (PSI 1-6); higher = more stable;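 further: 24-mer peptide tiles fused after GFP, lentivirally expressed, FACS-sorted into six equal bins by GFP/DsRed ratio, decoded by Illumina sequencing, PSI is the read-weighted mean bin number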
# condition: treatment: MLN4924 1 uM, 8 h; c terminus: a fixed tail appended
Known protein stability index of a selection of sequences
Number, no unit, nothing else.

Worked examples, 2 sequences total:
biopolymer_sequence: GRCLEVEMSKDANFGLRLVVQRCS [GALNT9]
protein stability index: 2

biopolymer_sequence: NWTVAFAPDGSYFAWSQGHRTVKL [WSB1]
protein stability index: 2.47

Lookup: Requested field: protein stability index. Item: EADENENITVVKGIRLSENVIDRM [CHCHD3]
Found: 4.7

Lookup: Requested field: protein stability index. Item: DSISLHQPCNPPAPAGDKGFQPPS [DMRTC1]
Found: 5

Lookup: Requested field: protein stability index. Item: GLVYRIHSVLQGFIPLFQKFRLTG [TMEM40]
Found: 2.73

Lookup: Requested field: protein stability index. Item: RRPRTAFTQNQIEVLENVFRVNCY [HESX1]
Found: 2.53

---

# test_method_notes: protein stability index of a GFP-peptide fusion (GPS, HEK-293T) (PSI 1-6); higher = more stable
# condition: treatment: MLN4924 1 uM, 8 h; c terminus: a fixed tail appended
Known protein stability index of a selection of sequences

biopolymer_sequence: VNVSDRGGRTALHHAALNGHVEMV [ANKRD44]
protein stability index: 3.24
//
biopolymer_sequence: IKCFHEIITIGYNVYHSYDLPWFR [CDS2]
protein stability index: 2.31
//
biopolymer_sequence: KDHSCKDNIREAFQIYDKEASGYV [EFHC1]
protein stability index: 3.81
//
biopolymer_sequence: QTLRQELSLPYLPSGTPELEVPKP [CHIT1]
protein stability index: 4.69
//
biopolymer_sequence: PKPCAGNQGTQITVEDLFYNIATR [MLH1]
protein stability index: 2.97
//
biopolymer_sequence: RWLPEKRANPCLSSSNEHAAPAAK [ELOA2]
protein stability index: 4.08

Lookup: Requested field: protein stability index. Item: REESQHEIKDVLVWTNDQVVHWVQ [PPFIA4]
Found: 3.97

Lookup: Requested field: protein stability index. Item: GAAQEALSIQLQPKETQPFPKSEQ [ZNF232]
Found: 5.22

---

# test_method_notes: protein stability index of a GFP-peptide fusion (GPS, HEK-293T) (PSI 1-6); higher = more stable
# condition: treatment: DMSO; c terminus: a fixed tail appended
Known protein stability index of a selection of sequences
Number, no unit, nothing else.

Worked examples, 5 sequences total:
biopolymer_sequence: WVRSVSFSHDGLHVASLADDKMVR [WSB1]
protein stability index: 2.66

biopolymer_sequence: LVLLIIIGIPLFFLELAVGQRIRR [SLC6A17]
protein stability index: 3.2

biopolymer_sequence: FNEMSAQGLRPRTVSSPIPYTPSP [CCDC6]
protein stability index: 4.02

biopolymer_sequence: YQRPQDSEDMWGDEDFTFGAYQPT [FBF1]
protein stability index: 3.2

biopolymer_sequence: PAGGLAPGGGRGALLDQIRQGIQL [WAS]
protein stability index: 4.7

Lookup: Requested field: protein stability index. Item: YPEEADGTLDCISMALTCTFNRWG [RBBP5]
Found: 2.19

Lookup: Requested field: protein stability index. Item: IPGHGGIMDRFDCQYLMATFVNVY [CDS2]
Found: 3

---

# test_method_notes: protein stability index of a GFP-peptide fusion (GPS, HEK-293T) (PSI 1-6); higher = more stable
# condition: treatment: DMSO; c terminus: a fixed tail appended
Answer 0 if protein stability index is under 4, and 1 if it is 4 or more.

biopolymer_sequence: QRSVSDVASGSTPAPALCCAPYDS [IRX6]
classification: 1

Lookup: Check this sequence for protein stability index at or above 4: QASSERLGLDNRLFGHPGLDMELG [ADAMTSL2]
Found: 0

Lookup: Check this sequence for protein stability index at or above 4: IKCFHEIITIGYNVYHSYDLPWFR [CDS2]
Found: 0

Lookup: Check this sequence for protein stability index at or above 4: RQFEFYLEEMILPLMVASAQSGER [BTBD10]
Found: 0

Lookup: Check this sequence for protein stability index at or above 4: GLGYFSCHSHTVVQDYSYFFFLRM [CCDC3]
Found: 0

Lookup: Check this sequence for protein stability index at or above 4: EPESKNAPHSQGEYDVYSTFQSHE [PPP2R2C]
Found: 1

Lookup: Check this sequence for protein stability index at or above 4: FSTCGSHLTVVAIFYGSGIFNYMR [OR3A1]
Found: 0

Lookup: Check this sequence for protein stability index at or above 4: DVKKEKLSPDIMKDAYVQKLVKVC [TENT5D]
Found: 0

Lookup: Check this sequence for protein stability index at or above 4: KRQVPTEQAQAYAERLGVTFFEVS [RAB40B]
Found: 0

Lookup: Check this sequence for protein stability index at or above 4: EKKESLGAAQEALSIQLQPKETQP [ZNF232]
Found: 1

Lookup: Check this sequence for protein stability index at or above 4: RWLPEKRANPCLSSSNEHAAPAAK [ELOA2]
Found: 1

Lookup: Check this sequence for protein stability index at or above 4: AYEFADRDEVRFFKGNKYWAVQGQ [MMP1]
Found: 0

Lookup: Check this sequence for protein stability index at or above 4: VRDMMANFHLNDLEAPHEDDAEGE [TCF25]
Found: 1

Lookup: Check this sequence for protein stability index at or above 4: VFLPIVVLIFKSILFLPCLRKKIL [STEAP1]
Found: 0

Lookup: Check this sequence for protein stability index at or above 4: GLQSPGTLQPPEFLYSHGVPRTLS [TBX5]
Found: 0

---

# test_method_notes: protein stability index of a GFP-peptide fusion (GPS, HEK-293T) (PSI 1-6); higher = more stable
# condition: treatment: DMSO; c terminus: a fixed tail appended
Known protein stability index of a selection of sequences
Number, no unit, nothing else.

biopolymer_sequence: INILQNEKSHQVLAQLLDTLLAIG [INTS4]
obs_value: 2.43

biopolymer_sequence: SLHCLLDQFDKDLPVYLKKDPAYF [DENND6A]
obs_value: 2.13

biopolymer_sequence: HYYLMDDTVEIREVHERNDGIDPF [EFHC1]
obs_value: 3.92

biopolymer_sequence: DGNLCLHVPNPPSGISFPSVVDHP [HESX1]
obs_value: 3.73

biopolymer_sequence: WGKGARGRLGRRDEDAGLPRPVQL [NEK8]
obs_value: 3.37

biopolymer_sequence: AGNSTSGSRAGASSFSDPFFVVET [KCNA3]
obs_value: 3.75

Next, consider the following sequence.
Lookup: Requested field: protein stability index. Item: AAGVFSNPAVRTAAANAAAGAAEN [SCAMP3]
Found: 5.03

---

# test_method_notes: protein stability index of a GFP-peptide fusion (GPS, HEK-293T) (PSI 1-6); higher = more stable
# condition: treatment: MLN4924 1 uM, 8 h; c terminus: a fixed tail appended
test_readout: protein stability index

Lookup: Requested field: protein stability index. Item: EIHSKTTAYSRLNETQPIDLSGLP [RNF180]
Found: 3.75

Lookup: Requested field: protein stability index. Item: VRDMMANFHLNDLEAPHEDDAEGE [TCF25]
Found: 5.3

Lookup: Requested field: protein stability index. Item: NPIGHLPESLTKPDQVAPFTFLQP [ATF4]
Found: 3.8

Lookup: Requested field: protein stability index. Item: DPELKNLFDMCGISEAQLKDRETS [WASL]
Found: 4.68

Lookup: Requested field: protein stability index. Item: MNPYNAVLTKKFQVTMRGLLSCLS [FBXO39]
Found: 2.72

Lookup: Requested field: protein stability index. Item: SEGACEKEKQSRDFQGRILSVDPE [RHOBTB1]
Found: 5.12

Lookup: Requested field: protein stability index. Item: LQAELAAQEALREKAAALERQLKV [LRRC45]
Found: 4.25

Lookup: Requested field: protein stability index. Item: MAGLSKEPNTLRAPRVRTAFTMEQ [VENTX]
Found: 3.75

Lookup: Requested field: protein stability index. Item: SPGIGAVYLANQAKNQSDEAKEAK [RTP4]
Found: 5.28

Lookup: Requested field: protein stability index. Item: EAGGKQKAVEEELDAEDRPAWNSK [SLC6A17]
Found: 5.57

Lookup: Requested field: protein stability index. Item: HYYLMDDTVEIREVHERNDGIDPF [EFHC1]
Found: 3.86

Lookup: Requested field: protein stability index. Item: HWRECLFYPALWPQLRICLRVSPA [FBXO33]
Found: 2.61

Lookup: Requested field: protein stability index. Item: DPKKLLTQYFVQENYLEYRQVPGS [MAGEA6]
Found: 3

Lookup: Requested field: protein stability index. Item: PPTTPQNEEIRAVGRLKRERSMSE [MFF]
Found: 5.05

Lookup: Requested field: protein stability index. Item: FLWGPRALVETSYVKVLHHMVKIS [MAGEA3]
Found: 2.64

Lookup: Requested field: protein stability index. Item: AVIRWMHSFNFVLSANLHGGAVVA [CPN1]
Found: 2.88
